Assay: Cytotoxicity against human PANC1 cells by MTT assay
Format: functional, cell-based
Conditions: PANC-1
Observed property: IC50
# number then unit; no other words

Looking up `CC(C)=CCC/C(C)=C/Cc1c(O)c(CC=C(C)C)c2c(c1O)C(=O)C1=C[C@@H]3C[C@H]4C(C)(C)O[C@@](C/C=C(/C)C(=O)OCCN5CCN(CCO)CC5)(C3=O)[C@@]14O2` , I found its IC50 recorded as 2510 nM

Looking up `CC(C)=CCC/C(C)=C/Cc1c(O)c(CC=C(C)C)c2c(c1O)C(=O)C1=C[C@H]3C[C@H]4C(C)(C)O[C@](C/C=C(/C)C(=O)OCCCN5CCCCC5)(C3=O)[C@]14O2` , I found its IC50 recorded as 4660 nM

Looking up `CCN(CC)CCCOC(=O)/C(C)=C\C[C@@]12OC(C)(C)[C@H]3C[C@@H](C=C4C(=O)c5c(O)c(C/C=C(\C)CCC=C(C)C)c(O)c(CC=C(C)C)c5O[C@]431)C2=O` , I found its IC50 recorded as 2850 nM

# credit: ChEMBL document CHEMBL3734739
